protocol_notes: NCI Yeast Anticancer Drug Screen. Data for the mlh1 strain (AID 171);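 note: 0% = growth of vehicle-treated control cultures of the same strain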
setup_conditions: S. cerevisiae mlh1 strain growth inhibition; at 33.0 µM; hits give high values
Procedure: Growth inhibition of yeast strains with defined genetic alterations is measured as a screen for potential anti-cancer activity. Selected strains with alterations in DNA damage repair or cell cycle control were exposed to compounds and growth inhibition was measured relative to vehicle treated controls. The strain used in this assay is mlh1
Compounds without any hit were thinned out: in the full panel of roughly 79,000, 15% have a hit. The source made the active and inactive calls. Cut-off read from the data, not from the text of the source: active = growth inhibition above about 70%; inactive = the rest.
parameter: growth inhibition

Below, 5 compounds whose answers are already recorded.
COc1ccc(/C=C/C(=O)c2ccccc2)cc1OC	67% (inactive)
CC[N+](CC)(CC)c1ccccc1	-43% (inactive)
c1ccc2[nH]c(-c3cscn3)nc2c1	-3% (inactive)
c1ccc(CCN2CCc3ccccc3C2)cc1	11% (inactive)
COc1cccc2c1C(=O)c1c(O)c3c(c(O)c1C2=O)C[C@@](O)(C(C)=O)C[C@@H]3OC1CC(OC(C)=O)C(OC(C)=O)C(C)O1 (stereo not given in full)	-8% (inactive)

Request: In one line, give reported growth inhibition of the entry CSc1nc(C)c(CCOC(C)=O)c(N=P(c2ccccc2)(c2ccccc2)c2ccccc2)n1 .
Response: -2% (inactive)

Request: In one line, give reported growth inhibition of the entry CCCCCCCCCCCC1N=C(N)NC(CCCO)=C1C(=O)OC (stereo not given) .
Response: 99% (active)

Request: In one line, give reported growth inhibition of the entry CC(=O)OCC(C)Cc1cc2c(cc1Br)OCO2 (stereo not given) .
Response: -11% (inactive)

Request: In one line, give reported growth inhibition of the entry O=c1ccc2ccccc2c2ccccc12 .
Response: 99% (active)

Request: In one line, give reported growth inhibition of the entry O=[n+]1c2ccccc2n([O-])c2cc(Br)ccc21 .
Response: 99% (active)

Request: In one line, give reported growth inhibition of the entry NC(=S)NC(=S)Nc1ccccc1 .
Response: 17% (inactive)

Request: In one line, give reported growth inhibition of the entry COC(=O)/C=C(/CC(=O)OC)C(=O)OC .
Response: 0% (inactive)

Request: In one line, give reported growth inhibition of the entry CN1CCN(C(=O)/C=C/C(=O)c2ccccc2)CC1 .
Response: 85% (active)

Request: In one line, give reported growth inhibition of the entry CCC(C)OC(=O)Nc1ccc(C)c(NC(=O)OC(C)CC)c1 (stereo not given) .
Response: 2% (inactive)

Request: In one line, give reported growth inhibition of the entry S=c1sc2c(s1)SCCS2 .
Response: 1% (inactive)

Request: In one line, give reported growth inhibition of the entry Cc1c2ccnc(C(=O)NCCN(C)C)c2cc2c3cc(O)ccc3n(C)c12 .
Response: 21% (inactive)

Request: In one line, give reported growth inhibition of the entry COC(C(O)CO)C(O)C(O)C(=O)NNc1ccccc1 (stereo not given) .
Response: 61% (inactive)

Request: In one line, give reported growth inhibition of the entry Cc1ccc(S/C(=C\C(=O)O)c2ccccc2)cc1 .
Response: 20% (inactive)

Request: In one line, give reported growth inhibition of the entry O=Cc1ccc2c(c1)C(=O)c1ccccc1C2=O .
Response: 44% (inactive)

Request: In one line, give reported growth inhibition of the entry Cc1ccc2c(c1)C1(SC(C)C(=O)N1c1ccc(Cl)cc1)C(=O)N2 (stereo not given) .
Response: 95% (active)

Request: In one line, give reported growth inhibition of the entry CCOC(=O)c1[nH]cc(C)c1-c1cccn1-c1ccc(Cl)cc1[N+](=O)[O-] .
Response: 55% (inactive)

Request: In one line, give reported growth inhibition of the entry O=C(Oc1ccc2c(c1)CN(Cc1ccccc1)CO2)c1ccccc1 .
Response: 4% (inactive)

Request: In one line, give reported growth inhibition of the entry O=C(O)c1ccccc1/C=N/N=C1c2ccccc2-c2ccccc21 .
Response: -9% (inactive)

Request: In one line, give reported growth inhibition of the entry N/C(=N/N=C/c1cc(Br)cc(Br)c1O)NO .
Response: 93% (active)

Request: In one line, give reported growth inhibition of the entry Nc1n[n+]([O-])c2ccc(Cl)cc2[n+]1[O-] .
Response: 93% (active)

====

Documented growth inhibition across a set of molecules
protocol_notes: NCI Yeast Anticancer Drug Screen. Data for the sgs1 mgt1 strain (AID 161);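 note: 0% = growth of cultures given vehicle only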
setup_conditions: S. cerevisiae sgs1 mgt1 strain, at 50.0 µM, hits give high values
About 79,000 compounds went through this panel and 15% of them were active in at least one assay; those are over-represented in the sample as a whole.
The answer is to be given in %; state only the numeric part.

Cn1c(=O)c2c(nc(N)n2C2OC(CO)C(O)C2O)n(C)c1=O (stereo unspecified)	85.3
O=C(c1ccc([N+](=O)[O-])cc1)C1N=NCC1c1ccccc1 (stereo unspecified)	59
c1ccc2cc(NCNc3ccc4ccccc4c3)ccc2c1	95.3
CCOC(=O)/C(=C\c1ccc(C#N)cc1)C(C)=O	92
O=c1c2ccccc2nc(-c2ccccc2)n1O	98.8

Request: In one line, give reported growth inhibition of the entry CCCC/C=C/C(C)(C(=O)OCC)C(=O)OCC .
Response: 37.6

====

Documented growth inhibition across a set of compounds
protocol_notes: NCI Yeast Anticancer Drug Screen. Data for the wt2 strain (AID 169);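 note: 0% = growth of vehicle-treated yeast cultures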
setup_conditions: S. cerevisiae wt2 strain growth inhibition; at 1.2 µM; hits give high values
The panel holds about 79,000 compounds, 15% with a hit somewhere; the sample as a whole holds those more often.
The answer is to be given in %; state only the numeric part.

Below, 4 compounds whose answers are already recorded.
Nc1ncnc2c1ncn2C1OC(CO)CC1O (stereo not given)	-7
CC(=O)OC1CC2C(C)(C)C(=O)C=C[C@]2(C)C2CCC3(C)C(=CCC3[C@H](CO)C[C@H](O)C(=O)C(C)(C)O)[C@]12C (stereo not given in full)	-32
CSc1nc(C)c(CCOC(C)=O)c(N=P(c2ccccc2)(c2ccccc2)c2ccccc2)n1	10
C=C(Cl)COC(=O)Nc1cccc(Cl)c1	-3

Now for a further compound.
Request: In one line, give reported growth inhibition of the entry COc1cc(C2c3cc4c(cc3OC(OC(C)=O)C2C)OCO4)cc(OC)c1OC (stereo not given) .
Response: -2

====

Documented growth inhibition across a set of molecules
protocol_notes: NCI Yeast Anticancer Drug Screen. Data for the rad18 strain (AID 177)
setup_conditions: S. cerevisiae rad18 mutant growth inhibition; at 3.7 µM; hits give high values
The panel holds about 79,000 compounds, 15% with a hit somewhere; the sample as a whole holds those more often. Activity calls are given as the source filed them. Cut-off read from the data, not from the text of the source: active = growth inhibition above about 70%; inactive = the rest.

Below, 4 molecules whose answers are already recorded.
CC(=O)Nc1ccc2c(c1)Cc1cc(N=C3C=CC(=O)O3)ccc1-2	31% (inactive)
O=C1CSC(c2cccc(Cl)c2)N1c1ccc(-c2ccc(-n3c(-c4ccccc4)nc4ccccc4c3=O)cc2)cc1 (stereo not given)	3% (inactive)
c1ccc2cc(NCNc3ccc4ccccc4c3)ccc2c1	-2% (inactive)
CC1CC[C@]2(C(=O)O)CCC3(C)C(=CC(=O)C4[C@@]5(C)CCC(=O)C(C)(C)C5CC[C@]43C)[C@@H]2[C@H]1C (stereo not given in full)	34% (inactive)

Now for a further molecule.
Request: In one line, give reported growth inhibition of the entry OCc1ccccc1Cc1ccccc1 .
Response: 0% (inactive)

====

Documented growth inhibition across a set of molecules
protocol_notes: NCI Yeast Anticancer Drug Screen. Data for the mec2-1 strain (AID 157)
setup_conditions: S. cerevisiae mec2-1 strain, at 33.0 µM, hits give high values
The panel holds about 79,000 compounds, 15% with a hit somewhere; the sample as a whole holds those more often.
The answer is to be given in %; state only the numeric part.

O=C(O)c1cc2ccccc2c2c1C(=O)c1ccccc1-2	95

Request: In one line, give reported growth inhibition of the entry CNCCCNc1c2ccccc2nc2cccc([N+](=O)[O-])c12 .
Response: 95

Request: In one line, give reported growth inhibition of the entry CC(=O)Nc1ccc(/C=C/[N+](=O)[O-])cc1 .
Response: 3

Request: In one line, give reported growth inhibition of the entry O=C1C=C(Cl)C(=O)C(c2ccc(Cl)cc2)=C1 .
Response: 98

Request: In one line, give reported growth inhibition of the entry Cc1cc(C(C)(C)CC(C)(C)C)ccc1O .
Response: 99

Request: In one line, give reported growth inhibition of the entry CCCCc1nnc(NS(=O)(=O)c2ccc(C)cc2)s1 .
Response: 31

Request: In one line, give reported growth inhibition of the entry O=C1C(=O)c2ccccc2C(O)=C1C(C1=C(O)c2ccccc2C(=O)C1=O)c1ccc(Cl)cc1 .
Response: 63

Request: In one line, give reported growth inhibition of the entry CCOC(=O)COc1c(OC)cc(C2C3=C(COC3=O)Oc3cc4c(cc32)OCO4)cc1OC (stereo unspecified) .
Response: 1

====

Documented growth inhibition across a set of molecules
protocol_notes: NCI Yeast Anticancer Drug Screen. Data for the rad50 strain (AID 155);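 note: 0% = growth of vehicle-only cultures of the same strain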
setup_conditions: S. cerevisiae rad50 strain growth inhibition; at 100.0 µM; hits give high values
The panel holds about 79,000 compounds, 15% with a hit somewhere; the sample as a whole holds those more often.
The answer is to be given in %; state only the numeric part.

CC1CC(C)(C)CC(OCCN2CCCCC2)(c2ccccc2)C1 (stereo unspecified)	82
CCCC(=O)Oc1c(C)cc([N+](=O)[O-])cc1[N+](=O)[O-]	99
Cc1cccc(C(C)(C)C)c1NC(=O)C(C#N)C1=C(Cl)C(=O)c2ccccc2C1=O (stereo unspecified)	96
Clc1ccc(NCNC2Nc3ccccc3N2)cc1Cl	98
COC(=O)CC1(O)C(/C=C/c2ccccc2)C(C(=O)OC)C(=O)C(C(=O)OC)C1C(=O)OC (stereo unspecified)	4
CCCCCCCCCCCCCCCCCC(=O)NCCCN(C)C	96

Request: In one line, give reported growth inhibition of the entry O=[N+]([O-])c1ccc(N/N=C/Cc2ccccc2)c([N+](=O)[O-])c1 .
Response: -2

Request: In one line, give reported growth inhibition of the entry Cc1cc(=O)oc2c(C)c3occc(=O)c3cc12 .
Response: 84

Request: In one line, give reported growth inhibition of the entry c1ccc2[nH]c(-c3cscn3)nc2c1 .
Response: 11

Request: In one line, give reported growth inhibition of the entry N#CC(C#N)=NNc1ccc(S(=O)(=O)O)cc1 .
Response: -9

Request: In one line, give reported growth inhibition of the entry Brc1ccccc1-c1ncc(-c2ccccc2)o1 .
Response: 70
